// provenance: patent US20200131144A1

targetOfAssay: GST-LXRβ ligand-binding domain (Homo sapiens, UniProt P55055, INS174Q)
Construct: amino acids 156-461; NP009052
Sequence (P55055 with tags, fused parts or gaps INS174Q limits assumed): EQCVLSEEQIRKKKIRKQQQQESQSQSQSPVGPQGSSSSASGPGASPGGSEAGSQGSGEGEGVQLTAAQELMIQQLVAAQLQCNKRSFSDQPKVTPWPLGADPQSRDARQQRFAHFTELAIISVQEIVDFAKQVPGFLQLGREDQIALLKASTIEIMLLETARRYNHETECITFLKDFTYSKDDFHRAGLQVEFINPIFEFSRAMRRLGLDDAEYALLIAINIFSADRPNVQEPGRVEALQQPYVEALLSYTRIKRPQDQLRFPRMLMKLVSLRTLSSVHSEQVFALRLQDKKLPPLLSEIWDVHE
experimentalProtocol: TR-FRETβ activity assay (NCoA3 coactivator peptide recruitment)
assayContext: 1 μM 24(S)-25-epoxycholesterol as prestimulating agonist; inverse agonist unless *
pEC50: −log10 of the molar value.
endpoint: pEC50

Reference set, count: 3
Cc1cc(C)c(CN(Cc2ccc(-c3cccc(S(=O)(=O)CC(=O)O)c3)cc2)C(=O)c2ccc(C(F)(F)F)o2)c(C)c1 | < 5.00
COc1ncc(CN(Cc2ccc(-c3cccc(C(C)(C)C(=O)O)c3)cc2)Cc2ccc(C(F)(F)F)o2)c2ccccc12 | 6.00 to 7.00
CCOC(=O)c1ccc(CN(Cc2ccc(-c3cccc(C(C)(C)C(=O)O)c3)cc2)C(=O)c2c(C)ccc3ccccc23)o1 | > 7.00

As a next step, examine the compound that follows.
Per the records, this compound ( O=C(O)CS(=O)(=O)c1cccc(-c2ccc(CN(Cc3ccc(C(F)(F)F)o3)Cc3c(Cl)cccc3Cl)cc2)c1 ) has pEC50 equal to 6.00 to 7.00

* * *

targetOfAssay: LXRβ full length (FL) (Homo sapiens, UniProt P55055, INS174Q)
Construct: the full length (FL) proteins of LXRα (amino acids 1-447); NP005684; NP009052
Sequence (P55055 with tags, fused parts or gaps INS174Q): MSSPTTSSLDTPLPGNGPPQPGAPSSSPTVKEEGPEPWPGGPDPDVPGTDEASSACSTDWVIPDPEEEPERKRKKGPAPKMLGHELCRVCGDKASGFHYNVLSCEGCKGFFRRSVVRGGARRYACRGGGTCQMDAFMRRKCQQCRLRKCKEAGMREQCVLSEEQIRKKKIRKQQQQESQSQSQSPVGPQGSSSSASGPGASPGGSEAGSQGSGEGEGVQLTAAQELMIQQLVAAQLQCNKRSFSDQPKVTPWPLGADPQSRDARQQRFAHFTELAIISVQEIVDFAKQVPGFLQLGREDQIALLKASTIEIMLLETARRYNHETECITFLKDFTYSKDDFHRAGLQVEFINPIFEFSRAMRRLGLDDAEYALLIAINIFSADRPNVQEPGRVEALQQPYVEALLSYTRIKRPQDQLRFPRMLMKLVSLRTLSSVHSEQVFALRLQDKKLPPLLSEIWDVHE
experimentalProtocol: LXR Gal4 reporter transient transfection assay, mammalian two-hybrid, FL-M2H Gal4β
assayContext: HEK293 cells; inverse agonist unless *
# EC50 annotations

O=C(O)CS(=O)(=O)c1cccc(-c2ccc(CN(Cc3ccc(C(F)(F)F)o3)C3CCc4cccc5cccc3c45)cc2)c1 (centres unmarked) has a reported EC50 of 1000 to 10000 nM

Query Cc1cc(C)c(CN(Cc2ccc(-c3cccc(S(=O)(=O)CC(=O)NO)c3)cc2)Cc2ccc(C(F)(F)F)o2)c(C)c1 yields EC50 of 100 to 1000 nM

Measured EC50, Cc1nc2cccnc2c(C(=O)N(Cc2ccc(-c3cccc(C(C)(C)C(=O)O)c3)cc2)Cc2cncc(C(F)(F)F)c2)c1C : 100 to 1000 nM

// EC50 lookup, compound = Cc1c(C(=O)N(Cc2ccc(-c3cccc(C(C)(C)C(=O)O)c3)cc2)Cc2ccc(C(F)(F)F)o2)c2ccccc2n(C)c1=O , result: < 100 nM

* * *

targetOfAssay: LXRα full length (FL) (Homo sapiens, UniProt Q13133)
Construct: the full length (FL) proteins of LXRα (amino acids 1-447); NP005684
Sequence (Q13133 1-447): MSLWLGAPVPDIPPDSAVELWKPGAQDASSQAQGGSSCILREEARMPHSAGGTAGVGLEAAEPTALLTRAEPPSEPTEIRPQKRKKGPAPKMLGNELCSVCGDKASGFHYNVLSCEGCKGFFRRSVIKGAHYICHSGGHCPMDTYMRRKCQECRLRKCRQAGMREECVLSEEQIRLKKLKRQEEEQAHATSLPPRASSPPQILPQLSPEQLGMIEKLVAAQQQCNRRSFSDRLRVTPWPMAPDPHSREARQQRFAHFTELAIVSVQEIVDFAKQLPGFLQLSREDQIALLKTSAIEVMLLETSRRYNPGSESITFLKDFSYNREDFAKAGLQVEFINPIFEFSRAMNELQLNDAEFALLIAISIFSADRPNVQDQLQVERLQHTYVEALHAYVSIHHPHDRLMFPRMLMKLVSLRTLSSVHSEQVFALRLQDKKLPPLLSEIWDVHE
experimentalProtocol: LXR Gal4 reporter transient transfection assay, mammalian two-hybrid, FL-M2H Gal4α
assayContext: HEK293 cells; inverse agonist unless *
pEC50: −log10 of the molar value.
Below, each entry is listed with its recorded pEC50.

CC(C)(C(=O)O)c1cccc(-c2ccc(CN(Cc3ccc(C(F)(F)F)o3)Cc3cccc4c3CCOC4)cc2)c1 | > 7.00
Cc1cc(C)c(CN(Cc2ccc(-c3cc(F)c(CO)c(S(=O)(=O)CC(=O)O)c3)cc2)Cc2ccc(C(F)(F)F)o2)c(C)c1 | 5.00 to 6.00

Per the record, Cc1cc(C)c([N+](=O)[O-])c(C)c1C(=O)N(Cc1ccc(-c2cccc(C(C)(C)C(=O)O)c2)cc1)Cc1ccc(C(F)(F)F)o1 has pEC50 of > 7.00

Entry COc1ccc2c(CN(Cc3ccc(-c4cccc(C(C)(C)C(=O)O)c4)cc3)Cc3ccc(C(F)(F)F)o3)cc(C)cc2c1 ; pEC50 = 6.00 to 7.00

So for Cc1nc2cccnc2c(C(=O)N(Cc2ccc(-c3cccc(C(C)(C)C(=O)O)c3)cc2)Cc2ccc(C#N)o2)c1C , the logged pEC50 turned out to be > 7.00

pEC50 measured on Cc1ccc2ccccc2c1C(=O)N(Cc1ccc(-c2cccc(C3(C(=O)O)CC3)c2)cc1)Cc1ccc(C(F)(F)F)o1 = > 7.00

So for CCc1cc(-c2cncc(C(C)(C)C(=O)O)c2)ccc1CN(Cc1ccc(C(F)(F)F)o1)C(=O)c1c(C)ccc2ccccc12 , the logged pEC50 turned out to be > 7.00

Given item COc1ccc2nc(C)c(C)c(C(=O)N(Cc3ccc(-c4cccc(C(C)(C)C(=O)O)c4)cc3)Cc3ccc(C(F)(F)F)o3)c2n1 , the value recorded as its pEC50 is > 7.00

The compound listed as CC12CC3(C)CC(C)(C1)CC(C(=O)N(Cc1ccc(-c4cccc(C(C)(C)C(=O)O)c4)cc1)Cc1ccc(C(F)(F)F)o1)(C2)C3 has a reported pEC50 of 6.00 to 7.00

The reported value for Cc1ccc2ccccc2c1CN(Cc1ccc(-c2cncc(S(=O)(=O)CC(=O)O)c2)cc1)Cc1ccc(C(F)(F)F)o1 in terms of pEC50 is 5.00 to 6.00

Per the records, this compound ( Cc1cc(C)c(CN(Cc2ccc(-c3cccc(C(C)(C)C(=O)O)c3)cc2)Cc2ccc(C(F)(F)F)o2)c2c1CCC2 ) has pEC50 equal to > 7.00

Record Cc1nc2cccnc2c(C(=O)N(Cc2ccc(-c3cccc(C(C)(C)C(=O)O)c3)cc2)Cc2ccc(C(F)(F)F)o2)c1C . Reported pEC50: > 7.00

// pEC50 value for Cc1ccc2ccccc2c1C(=O)N(Cc1ccc(C(F)(F)F)o1)Cc1ncc(-c2cccc(C(C)(C)C(=O)O)c2)cc1Cl : > 7.00

Sure, the documented pEC50 for CONC(=O)CS(=O)(=O)c1cccc(-c2ccc(CN(Cc3ccc(C(F)(F)F)o3)Cc3c(C)cc(C)cc3C)cc2)c1 is 6.00 to 7.00

* * *

experimentalProtocol: Pharmacokinetics in mice after single oral dosing, blood and liver exposure by LC-MS
Type: in vivo, mice (C57/bl6/J)
assayContext: male, C57/bl6/J, mouse, liver/blood, single oral dose 20 mg/kg, time point 24 h, read-out: liver/blood ratio
endpoint: Kp at 24 h

Cc1ccc2ccccc2c1CN(Cc1ccc(-c2cccc(C(C)(C)C(=O)O)c2)cc1)Cc1ccc(C(F)(F)F)o1 | 2.9

a. Cc1ccc2ccccc2c1C(=O)N(Cc1ccc(-c2cccc(S(=O)(=O)CC(=O)O)c2)cc1)Cc1ccc(C(F)(F)F)o1
b. Cc1ccc2ccccc2c1C(=O)N(Cc1ccc(-c2cccc(C(C)(C)C(=O)O)c2)cc1)Cc1ccc(C(F)(F)F)o1
query: Hey, between a and b which has a smaller measured Kp at 24 h? Please indicate the selected item by its label.
result: b
(b: 3.6, a: 25)

* * *

Listing: EC50 of selected molecules
targetOfAssay: GST-LXRβ ligand-binding domain (Homo sapiens, UniProt P55055, INS174Q)
Construct: amino acids 156-461; NP009052
experimentalProtocol: TR-FRETβ activity assay (NCoA3 coactivator peptide recruitment)
assayContext: 1 μM 24(S)-25-epoxycholesterol as prestimulating agonist; inverse agonist unless *

Field: example entries. Status: answers known.
COc1cc(CN(Cc2ccc(C(F)(F)F)o2)Cc2c(C)ccc3ccccc23)ccc1-c1cccc(C(C)(C)C(=O)O)c1 | 1000 to 10000 nM
CC(c1cccc2ncccc12)N(Cc1ccc(-c2cccc(S(=O)(=O)CC(=O)O)c2)cc1)Cc1ccc(C(F)(F)F)o1 (centres unmarked) | 1000 to 10000 nM

The reported EC50 value, GST-LXRβ ligand-binding domain (Homo sapiens, UniProt P55055, INS174Q), for Cc1ccc2ccccc2c1C(=O)N(Cc1ccc(-c2cccc(S(=O)(=O)CC(=O)O)c2)cc1)Cc1ccc(C(F)(F)F)o1 reads 1000 to 10000 nM

Assay GST-LXRβ ligand-binding domain (Homo sapiens, UniProt P55055, INS174Q), sample Cc1ccc2ccccc2c1CN(Cc1ccc(-c2cccc(CC(C)(C)C(=O)O)c2)cc1)Cc1ccc(C(F)(F)F)o1 , EC50 read: 1000 to 10000 nM

Considering Cc1c(CN(Cc2ccc(-c3cccc(C(C)(C)C(=O)O)c3)cc2)Cc2ccc(C(F)(F)F)o2)c2ccccc2[nH]c1=O , its EC50 with GST-LXRβ ligand-binding domain (Homo sapiens, UniProt P55055, INS174Q) was recorded as 100 to 1000 nM

Entry Cc1ccc(CN(Cc2ccc(-c3cccc(C(C)(C)C(=O)O)c3)cc2)Cc2ccc(C(F)(F)F)o2)c2ccccc12 ; assay system GST-LXRβ ligand-binding domain (Homo sapiens, UniProt P55055, INS174Q); EC50 recorded at < 100 nM
